# Tested on: KM12
# Test Method Notes: NCI tumour cell line growth inhibition, 48 h
Active and inactive are the calls of the source. Cut-off read from the data, not from the text of the source: active = GI50 up to about 1.1 µM and inactive = higher.
Measured Metric: GI50

Please supply the value of reported GI50 for the item COC(=O)[C@@H]1C[C@@H](O)CN1C(=O)c1ccc([N+](=O)[O-])cc1[N+](=O)[O-]
> 100 µM (inactive)

Please report the measured GI50 for COc1ccc(C2OC(c3ccncc3)=NN2C)cc1F (stereo not given)
> 100 µM (inactive)

Quote GI50 reported for C[N+]12CCCCC1C(COc1cccc3cccnc13)CCC2 (stereo not given) please.
> 100 µM (inactive)

Please supply the value of reported GI50 for the item O=C(COc1ccc(Cl)cc1)N1CCN(C(=O)COc2ccc(Cl)cc2)c2ccccc21
57 µM (inactive)

Please list GI50 recorded for the molecule COc1ccc(/C(Cl)=C(\C=O)c2ccc(OC)c(OC)c2)cc1OC
32.5 µM (inactive)

Determine from records and report GI50 for CC(=O)NC1(NC(C)=O)C2CC(C1Cc1ccccc1)C(C)(C)C2C (stereo not given)
> 100 µM (inactive)

Give the reported value of GI50 for this record: CC(=O)c1sc2c(c1OC(=O)c1ccc(Cl)cc1)c(=O)n(-c1ccccc1)c(=S)n2-c1ccccc1
10.9 µM (inactive)

Report GI50, nothing else, for this molecule: COc1cc(CCc2cccnc2)cc(OC)c1OC
> 100 µM (inactive)

Dear colleague, please send me the reported GI50 for Cc1ccc(C2SCc3nc4ccccc4n32)cc1 (stereo not given) when you can.
1.51 µM (inactive)

Item O=C(CCSC(CC(=O)c1ccc(Cl)cc1)c1ccc(Cl)cc1)Nc1ccc(Cl)cc1 (stereo not given) : provide GI50
3.21 µM (inactive)
